# TEST NAME: Comparative plasma PK of Compound 1 versus Int 1-4 in male CD-1 mice (study b)
# Type: in vivo
# CONDITION SET: male, CD-1, mouse, iv, 10 mg/kg, after iv Int 1-4 10.0 mg/kg, Formulation 1
VALUE TYPE: clearance (mL/min/kg)
Express your answer in mL/min/kg, writing the number without its unit.

Which clearance is listed for COc1cc(OC)c2oc(COC(=O)Nc3ccn([C@@H]4O[C@H](CO)[C@@H](O)C4(F)F)c(=O)n3)cc2c1 [Int 1-4] ? 48.3

---

# TEST NAME: Metabolic stability in liver hepatocytes, human
# Type: in vitro ADME
# CONDITION SET: read-out: t1/2 mean ± SE
Assign half-life to each entry below.

Item Nc1ccn([C@@H]2O[C@H](CO)[C@@H](O)C2(F)F)c(=O)n1 [Gemcitabine, gemcitabine] has what recorded half-life? 1.69 h

What does the data say about its half-life? Entry: COc1cc(OC)c2oc(COC(=O)Nc3ccn([C@@H]4O[C@H](CO)[C@@H](O)C4(F)F)c(=O)n3)cc2c1 [Int 1-4] 3.81 h
